Please go through the items and note down their EC50.
# EXPERIMENTAL TARGET: T1, rhPD-L1-Fc (human, UniProt Q9NZQ7 19-239, limits assumed)
# T1 construct: Recombinant human PD-L1-Fc coated on ELISA plates; not shown: Fc part
# T1 sequence (Q9NZQ7 19-239 limits assumed): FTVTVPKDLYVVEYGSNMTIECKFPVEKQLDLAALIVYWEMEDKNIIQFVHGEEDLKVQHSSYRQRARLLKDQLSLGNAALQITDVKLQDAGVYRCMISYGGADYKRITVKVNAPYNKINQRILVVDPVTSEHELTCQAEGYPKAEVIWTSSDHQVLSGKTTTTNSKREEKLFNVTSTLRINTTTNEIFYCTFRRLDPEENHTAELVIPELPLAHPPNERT
# ASSAY NAME: competition ELISA: plate-bound rhPD-L1-Fc, antibody titrated, competitor rhCD80-His detected
Entry rule: numbers only, all in µg/mL.

Data request, read-out EC50, for antibody A9 (antibody, V domains shown, Tested as full-length mAb made in CHO cells; also called L9H9) VH: QVQLVESGGGVVQPGRSLRLSCAASGFTFSSYGMHWVRQAPGKGLEWVAVIWFDGNNKYYADSVKGRFTISRDNSKNTLYLQMNSLRAEDTAVYYCARDVTTVPFDYWGQGTLVTVSS VL: EIVMTQSPATLSLSPGERATLSCRASQSVSSSYLSWYQQKPGQAPRLLMYGASTRATGIPARFSGSGSGTDFTLTISSLQPEDFAVYYCQQDYNLPYTFGQGTKLEIK
1.49

EC50 for antibody A3 (antibody, V domains shown, Tested as full-length mAb made in CHO cells; also called L3H3) VL: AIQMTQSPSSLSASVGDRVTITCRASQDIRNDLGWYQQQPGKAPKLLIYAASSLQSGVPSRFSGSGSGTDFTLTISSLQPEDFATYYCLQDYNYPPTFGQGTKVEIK V domain: QVQLVESGGGVVQPGRSLRLSCAASGFTFSNYGMHWVRQAPGKGLEWVAVIWFDGNTKYYTDSVKGRFTISRDNSKNTLYLQMNSLRAEDTAVYYCARDTTMVPMDVWGQGTTATVSS ?
0.99

For the binder shown here, antibody A11 (antibody, V domains shown, Tested as full-length mAb made in CHO cells; also called L11H11) VH: QVQLVESGGGVVQPGRSLRLSCAASGFTFSSYGIHWVRQAPGKGLEWVAVIWSDGSNKFYADSVKGRFTISRDNSKNTLFLQMSSLRAEDTAVYYCARDIAAAIDYWGQGTLVTVSS VL: AIQMTQSPSSLSASVGDRVTITCRASQGIRNDLGWYQQKPGKAPKLLIYAASSLQSGVPSRFSGSGSGTDFTLTISSLQPEDFATYYCLQDYNYPYTFGQGTKLEIK , give the reported EC50.
0.56

Requested read-out: EC50. Entry: antibody A2 (antibody, V domains shown, Tested as full-length mAb made in CHO cells; also called L2H2) VH: EVQLVESGGGLVQPGGSLRLSCAASGFTFSRYDMSWVRQAPGKGLEWVSTISGSGGSTYYADSVKGRFTISRDNSKTTLYLQMISLRAEDTAVYYCAKAGFTMIVVAFDYWGQGTLVTVSS VL: DIQMTQSPSSLSASVGDRVTITCRASQGISNYLAWFQQKPGKAPKSLIYAASSLQSGVPSKFSGSGSGTDFTLTISSLQPEDFATYYCQQYNSYPYTFGQGTKLEIK
0.87

# get_value(readout='EC50', item= antibody A16 (antibody, V domains shown, Tested as full-length mAb made in CHO cells; also called L16H16) VH: QVQLVESGGGVVQPGRSLRLSCAASGFTFSSYGMHWVRQAPGKGLEWVAVIWYDGSNKYYADSVKGRFTISRDNSNDTLFLQMNSLRAEDTAVYYCARDFDWFGMDVWGQGTTVTVSS VL: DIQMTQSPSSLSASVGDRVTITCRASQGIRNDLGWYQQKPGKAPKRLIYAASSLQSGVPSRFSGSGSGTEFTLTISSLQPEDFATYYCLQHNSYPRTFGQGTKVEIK )
0.64
